biological target: type V tartrate-resistant acid phosphatase (TRAP) protein, immobilised on CM5 sensor chip; experiment: SPR, TRAP on CM5 chip, initial rate analysis of sensorgrams
Ends that are not written are not given here. * marks the point of attachment. Methacryloyl = C=C(C)C(=O)*
Reported Endpoint: Kd (µM)

[
  {
    "Binder": "Methacryloyl-TPLSYLKGLVTVG (not fully specified; also: RAFT copolymer with PEG methyl ether methacrylate, about 3 peptides per chain) [5% TBP-functionalized PEG polymer, M:CTA:I 125:1:0.1, Mn 17.1 kDa (Table 4)]",
    "Reported Endpoint": "Kd",
    "Numeric Value": 70
  },
  {
    "Binder": "Methacryloyl-TPLSYLKGLVTVG (not fully specified; also: RAFT copolymer with PEG methyl ether methacrylate, about 9 peptides per chain) [10% TBP-functionalized polymer (pTBP), M:CTA:I 300:1:0.1, Mn 40.1 kDa (Table 4)]",
    "Reported Endpoint": "Kd",
    "Numeric Value": 60
  },
  {
    "Binder": "Methacryloyl-TPLSYLKGLVTVG (not fully specified; also: RAFT copolymer with PEG methyl ether methacrylate, about 5 peptides per chain) [5% TBP-functionalized PEG polymer, M:CTA:I 250:1:0.1, Mn 42.3 kDa (Table 4)]",
    "Reported Endpoint": "Kd",
    "Numeric Value": 80
  },
  {
    "Binder": "Methacryloyl-TPLSYLKGLVTVG (not fully specified; also: RAFT copolymer with PEG methyl ether methacrylate, about 11 peptides per chain) [5% TBP-functionalized PEG polymer, M:CTA:I 600:1:0.1, Mn 98.2 kDa (Table 4)]",
    "Reported Endpoint": "Kd",
    "Numeric Value": 140
  },
  {
    "Binder": "Methacryloyl-TPLSYLKGLVTVG (not fully specified; also: RAFT copolymer with PEG methyl ether methacrylate, about 12 peptides per chain) [20% TBP-functionalized PEG polymer, M:CTA:I 500:1:0.1, Mn 32.7 kDa (Table 4)]",
    "Reported Endpoint": "Kd",
    "Numeric Value": 70
  }
]
